From: patent US8124834B2

target: LOG protein (Oryza sativa subsp. japonica); assay: Substrate specificity of LOG protein to nucleotide cytokinin forms and AMP; format: biochemical; set-up: the protein coding region of the LOG gene cDNA was inserted into pCOLD-I (TaKaRa), a His-tag protein expression vector; made in house; host or cells: E. coli BL21(DE3)[pG-Tf2]; conditions: 0.02 μg LOG protein, 100 μM substrate, pH 6.5, 4 minutes (iPRDP, iPRTP: 0.01 μg, 2 minutes)
Sequence (Q5ZC82 whole entry): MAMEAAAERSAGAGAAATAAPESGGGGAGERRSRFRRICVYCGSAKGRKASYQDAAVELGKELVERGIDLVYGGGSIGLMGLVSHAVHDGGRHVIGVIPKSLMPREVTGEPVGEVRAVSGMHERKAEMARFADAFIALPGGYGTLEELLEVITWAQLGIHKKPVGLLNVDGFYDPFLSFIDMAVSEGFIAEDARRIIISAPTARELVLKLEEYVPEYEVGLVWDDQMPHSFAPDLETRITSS
endpoint: reactivity of LOG protein to the substrate (substrate specificity)

CC(C)=CCNc1ncnc2c1ncn2[C@@H]1O[C@H](COP(=O)(O)O)[C@@H](O)[C@H]1O; uses as a substrate
CC(C)=CCNc1ncnc2c1ncn2[C@@H]1O[C@H](COP(=O)(O)OP(=O)(O)O)[C@@H](O)[C@H]1O [iPRDP, iPR 5′-diphosphate]; no reactivity
CC(C)=CCNc1ncnc2c1ncn2[C@@H]1O[C@H](COP(=O)(O)OP(=O)(O)OP(=O)(O)O)[C@@H](O)[C@H]1O [iPRTP, iPR 5′-triphosphate]; no reactivity
CC(CO)CCNc1ncnc2c1ncn2C1OC(COP(=O)(O)O)C(O)C1O (stereo not drawn) [DZRMP, dihydrozeatin riboside 5′-monophosphate]; uses as a substrate
Nc1ncnc2c1ncn2[C@@H]1O[C@H](COP(=O)(O)O)[C@@H](O)[C@H]1O; no reactivity

Could you now consider this next compound?
Looking for the measured reactivity of LOG protein to the substrate (substrate specificity) of C/C(=C\CNc1ncnc2c1ncn2[C@@H]1O[C@H](COP(=O)(O)O)[C@@H](O)[C@H]1O)CO (relative stereo) [tZRMP, trans-zeatin riboside 5′-monophosphate] , can you help?
uses as a substrate

###

molecular target: UniProtKB Q5ZC82; assay: Detection of enzyme activity of recombinant LOG protein with cytokinin substrates (HPLC); format: biochemical; parameters: the protein coding region of the LOG gene cDNA was inserted into pCOLD-I (TaKaRa), a His-tag protein expression vector; made in house; host or cells: E. coli BL21(DE3)[pG-Tf2]; conditions: 3 μg LOG protein, 50 μM substrate, pH7, 30° C., 2 hours, HPLC absorption at 270 nm
endpoint: reactivity of the substrate with recombinant LOG protein (conversion to base form)

C/C(=C\CNc1ncnc2nc[nH]c12)CO [tZ, trans-zeatin]; no reactivity
C/C(=C\CNc1ncnc2c1ncn2[C@@H]1O[C@H](CO)[C@@H](O)[C@H]1O)CO [tZR, tZ riboside]; no reactivity
C/C(=C/CNc1ncnc2c1ncn2[C@@H]1O[C@H](CO)[C@@H](O)[C@H]1O)CO [cZR, cZ riboside]; no reactivity
